From: the nanobody polyreactivity screen of Harvey et al. (2022)

# assayProtocol: yeast display, Sf9 membrane polyspecificity reagent, FACS + sequencing; frameworks hold sequencing errors
reportedEndpoint: polyreactivity (PSR sort gate)

- QVQLVESGGGLVQAGGSLRISCAASASIFPGYAMGWYRQAPGKERELVAAISWSGGRTYYADSVKGRFTISRDNSKNTFYLQMNSLKPEDTAVYYCAARKYHLRSAYDYWGQGTQVTVSS: low polyreactivity
- QVQLVESGGGLVQAGGSLRLSCAASVLIFHTYGMGWYRQAPGKERELVADITDGGSTYYADSVKGRFTISRDNAKNTVYLQMNSLKPEDTAVYYCAADERGVFLTYWYFWYDYWGQGTQETVSS: low polyreactivity
- QVQLVESGGGLVQAGGSLRITCAASGSTFGPYVMGWYRQAPGKEMELVAAISLSGASTYYADSVKGRFTISRDNAKNNVYLQMISLKPEETAVYYCAAQTPYGMYYWGQGTQVTVSS: low polyreactivity

###

# assayProtocol: yeast display, Sf9 membrane polyspecificity reagent, FACS + sequencing; frameworks hold sequencing errors
reportedEndpoint: polyreactivity (PSR sort gate)

Some solved entries appear below for comparison.
* QVQLVESGGGLVQAGGSLRLSCAASGSTFLTYAMGWYRQAPGKERELVASISRSGSTNYADSVKGRFTISRDNAKNTVYLQLNSLKPEDTAVYYCAADHTRYSSSWYYKQYYYWGQGTQVTVSS | low polyreactivity
* QVQLVESGGGLVQAGGSLRLSCAASGRIFGYYGMGWYRQAPGKERELVAGITSSGGSTYYADSVKGRFTISRDNAKNTVYLQMNSLKPEDTAVYYCNVRRYGSRFDYWGQGTQVTVSS | high polyreactivity
* QVQLVESGGGLVQAGGTLSLSCAASGRTFVSYTMGWYRQAPGKERELVAAINYSVASTNYADSVKGRFTISRDNAKNSVYLQMNSLKPEDTAVYYCNRASAVWGQGTQVTVSS | low polyreactivity
* QVQLVESGGGLLQAGGSLRLSCAASGSTFDSYAMGWYRQAPGKERELVAAITNGGSTYYADSVKGRFTISRDNAKNTVYLQMNSLKPEDTAVYYCATDDYLLDYLYDYWGQGTQVTVSS | low polyreactivity
* QVQLVESGGGLVQAGGSLRLSCAASGSILYANAMGWYRQAPGKDRELVAAISARGTSTYYADSVKGRFTISRDNAKNTVYLQMNSLKPEDTAVYYCAAYVRKKLPSALMNYWGQGTQVTVSS | high polyreactivity

// for each sequence in input: emit polyreactivity (PSR sort gate)
1. QVQLVESGGGLVQAGGSLRLSCAASGRIFVTYAMGLYRQAPGKERELVAVISWSGGSTYYADSVKGRFTISRDNAKNTVYLQMNSLKPEDTAVYYCARGLRKVRFDYWGQGTQVTVSS
2. QVQLVESGGGLVQAGGSLRLSCAASGRIFKAYAMGWYRQAPGKERELVAAITSTGSTYYADSVKGRFTISRDNAKNTVYLQMNSLKPEDTAVYSCARRPSYYQGDYWGQGTQVTVSS
3. QVQLVESGGGLVQAGGSLRLSCAASGRTFGFYGMGWYRQAPGKEREFVAAITRRGGSTYYADSVKGRFTISRDNAKNTVYLQMNSLNPEDTAVYYCNAARGAYYRWWGFGSDYWGQGTQVTVSS
4. QDQLVEERGGLVQAGGSLRLSCAASGITFSTNAMGWYRQAPGKERELVAAITSVTSTYYADSVKGRFTISRDYAKNSVYLQMNSLKTEDTAVLYCAASLSRWPYFYEYNYWGQGTQVTVSS
5. QVQLVESGGGLVQAGGSLRLSCAASGLIFRGYAMGWYRQAPGKERELVAAISSIAGSTYYADSVKGRFTISRDNAKNTVYLQMNSLKPEDTAVYYCAARSRWTFRDYYYWGQGTQVTVSS
6. QVQLVQSGGGLVQAGGSLRLSCAASGRIFADNAMGWYRQAPGKERELVADITYSGGSTYYADSVKGRFTISRDNAKNTVYLQMNILKPEDTVVYYCAAGRSSLYFPGYYYWGQGTLVTVSS
7. QVQLVESGGGLVQAGGSLRLSCAPSGFSIIGNAMGWYRQAPGKERELVAAISRRGGSTYYADSVKGRFTISRDNAKNTVYLQLNSLKPEDTAVYYCATDPGARVHYPTGDYWGQGTQVTVSS

["low polyreactivity", "high polyreactivity", "high polyreactivity", "low polyreactivity", "high polyreactivity", "low polyreactivity", "high polyreactivity"]
